- target-under-test: TPM3-TRKA fusion protein (Homo sapiens, UniProt P04629)
- Construct: The resulted chimeric proteins always retain the kinase domain of TRK proteins; TPM3 (fusion partner, N-terminal part of tropomyosin alpha-3, P06753); endogenous in cells; host or cells: KM12 colon cancer cells; the other entry of the earlier key: TPM3 (P06753, Tropomyosin alpha-3 chain)
- Sequence (P04629 with tags, fused parts or gaps): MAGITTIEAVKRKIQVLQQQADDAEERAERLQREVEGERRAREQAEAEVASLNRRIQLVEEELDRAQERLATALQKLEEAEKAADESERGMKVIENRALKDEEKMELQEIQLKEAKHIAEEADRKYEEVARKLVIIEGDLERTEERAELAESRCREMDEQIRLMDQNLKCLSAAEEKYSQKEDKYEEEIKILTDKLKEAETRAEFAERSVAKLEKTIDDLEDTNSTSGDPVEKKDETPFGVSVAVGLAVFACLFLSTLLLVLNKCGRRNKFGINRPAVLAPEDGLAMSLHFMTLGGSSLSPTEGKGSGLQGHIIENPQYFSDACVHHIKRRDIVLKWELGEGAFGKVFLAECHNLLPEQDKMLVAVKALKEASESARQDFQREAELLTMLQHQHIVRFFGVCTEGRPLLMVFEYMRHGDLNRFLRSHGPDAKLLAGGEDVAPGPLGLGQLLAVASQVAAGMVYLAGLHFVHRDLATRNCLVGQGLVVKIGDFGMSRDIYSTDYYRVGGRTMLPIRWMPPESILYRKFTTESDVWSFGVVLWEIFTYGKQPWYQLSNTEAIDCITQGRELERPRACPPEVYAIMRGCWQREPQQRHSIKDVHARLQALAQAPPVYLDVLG
- run-description: TPM3-TRKA fusion protein levels in KM12 cells (Western blot)
- Assay type: cell-based
- test-parameters: KM12, 16 h, read-out: Degradation (at 10 nM)
readout-type: percent degradation of TPM3-TRKA protein at 0.01 µM

[
  {
    "compound": "O=C1CCC(N2C(=O)c3ccc(CN4CC(N5CCN(c6ccc(C(=O)Nc7n[nH]c8ccc(Cc9cc(F)cc(F)c9)cc78)c(NCCF)c6)CC5)C4)cc3C2=O)C(=O)N1 (stereo not drawn)",
    "observed-value": "> 80%"
  },
  {
    "compound": "Cn1c(=O)n(C2CCC(=O)NC2=O)c2cccc(OCCCN3CCN(c4cccc(-c5cnc6ccc(N7CCC[C@@H]7c7cccc(F)c7)nn56)n4)CC3)c21 (stereo partly drawn)",
    "observed-value": "< 50%"
  },
  {
    "compound": "O=C1CCC(N2C(=O)c3ccc(CCCN4CCN(c5cccc(-c6cnc7ccc(N8CCC[C@@H]8c8cccc(F)c8)nn67)n5)CC4)cc3C2=O)C(=O)N1 (stereo partly drawn)",
    "observed-value": "> 80%"
  },
  {
    "compound": "Cn1c(=O)n(C2CCC(=O)NC2=O)c2cccc(CCCCN3CCN(c4cccc(-c5cnc6ccc(N7CCC[C@@H]7c7cccc(F)c7)nn56)n4)CC3)c21 (stereo partly drawn)",
    "observed-value": "> 80%"
  },
  {
    "compound": "Cn1c(=O)n(C2CCC(=O)NC2=O)c2cccc(C#CCN3CCN(c4cccc(-c5cnc6ccc(N7CCC[C@@H]7c7cccc(F)c7)nn56)n4)CC3)c21 (stereo partly drawn)",
    "observed-value": "> 80%"
  },
  {
    "compound": "O=C1CCC(N2Cc3cc(C4CN(C5CCN(c6cccc(-c7cnc8ccc(N9CCC[C@@H]9c9cccc(F)c9)nn78)n6)CC5)C4)ccc3C2=O)C(=O)N1 (stereo partly drawn)",
    "observed-value": "> 80%"
  },
  {
    "compound": "O=C1CCC(N2Cc3cc(C4CN(C5CCN(c6ccc(C(=O)Nc7n[nH]c8ccc(Cc9cc(F)cc(F)c9)cc78)c(NC7CCOCC7)c6)CC5)C4)ccc3C2=O)C(=O)N1 (stereo not drawn)",
    "observed-value": "> 80%"
  },
  {
    "compound": "O=C1CCC(N2Cc3ccc(C4CN(C5CCN(c6cccc(-c7cnc8ccc(N9CCC[C@@H]9c9cccc(F)c9)nn78)n6)CC5)C4)cc3C2=O)C(=O)N1 (stereo partly drawn)",
    "observed-value": "50 to 80%"
  },
  {
    "compound": "O=C1CCC(N2C(=O)c3ccc(N4CC(N5CCN(c6cccc(-c7cnc8ccc(N9CCC[C@@H]9c9cccc(F)c9)nn78)n6)CC5)C4)cc3C2=O)C(=O)N1 (stereo partly drawn)",
    "observed-value": "> 80%"
  },
  {
    "compound": "COc1ccc(COc2ccc(Cn3c(N)nc4cc(-c5cnn(CC(=O)NCCNc6cccc7c6C(=O)N(C6CCC(=O)NC6=O)C7=O)c5)cnc43)cc2OC)cc1 (stereo not drawn)",
    "observed-value": "50 to 80%"
  },
  {
    "compound": "O=C1CCC(N2C(=O)c3ccc(N4CCC(N5CCN(c6ccc(C(=O)Nc7n[nH]c8ccc(Cc9cc(F)cc(F)c9)cc78)c(NC7CCOCC7)c6)CC5)CC4)cc3C2=O)C(=O)N1 (stereo not drawn)",
    "observed-value": "> 80%"
  },
  {
    "compound": "Cn1c(=O)n(C2CCC(=O)NC2=O)c2cccc(NCCN3CCN(c4ccc(C(=O)Nc5n[nH]c6ccc(Cc7cc(F)cc(F)c7)cc56)c(NC5CCOCC5)c4)CC3)c21 (stereo not drawn)",
    "observed-value": "> 80%"
  },
  {
    "compound": "O=C1CCC(N2C(=O)c3ccc(CN4CC(N5CCN(c6ccc(C(=O)Nc7n[nH]c8ccc(Cc9cc(F)cc(F)c9)cc78)c(NC7CCOCC7)c6)CC5)C4)cc3C2=O)C(=O)N1 (stereo not drawn)",
    "observed-value": "> 80%"
  },
  {
    "compound": "O=C1CCC(N2C(=O)c3ccc(C4CN(C5CCN(c6cccc(-c7cnc8ccc(N9CCC[C@@H]9c9cccc(F)c9)nn78)n6)CC5)C4)cc3C2=O)C(=O)N1 (stereo partly drawn)",
    "observed-value": "> 80%"
  },
  {
    "compound": "Cn1c(=O)n(C2CCC(=O)NC2=O)c2cccc(OCCN3CCN(c4ccc(C(=O)Nc5n[nH]c6ccc(Cc7cc(F)cc(F)c7)cc56)c(NC5CCOCC5)c4)CC3)c21 (stereo not drawn)",
    "observed-value": "< 50%"
  },
  {
    "compound": "NC(=O)C1CCN(c2cc(CN3CCN(C(=O)CNc4cccc5c4C(=O)N(C4CCC(=O)NC4=O)C5=O)CC3)ccc2NC(=O)c2coc(N3CCOCC3)n2)CC1 (stereo not drawn)",
    "observed-value": "> 80%"
  },
  {
    "compound": "O=C1CCC(N2C(=O)c3ccc(OCCN4CCN(c5cccc(-c6cnc7ccc(N8CCC[C@@H]8c8cccc(F)c8)nn67)n5)CC4)cc3C2=O)C(=O)N1 (stereo partly drawn)",
    "observed-value": "> 80%"
  },
  {
    "compound": "O=C1CCC(N2C(=O)c3ccc(N4CCC(N5CCN(c6cccc(-c7cnc8ccc(N9CCC[C@@H]9c9cccc(F)c9)nn78)n6)CC5)CC4)cc3C2=O)C(=O)N1 (stereo partly drawn)",
    "observed-value": "> 80%"
  }
]
